From: patent US20240384350A1

target: EGFR E709K L858R (Homo sapiens, UniProt P00533, E709K/L858R); construct: expressed in transfected cells; host or cells: Ba/F3 cells, retroviral pBabe-Puro vector; assay: Ba/F3 drug screening, Cell Titer Glo, IC50 Mut/WT; assay type: cell-based; conditions: Classical-Like, 72 hours
Label YES when ratio of IC50 for cells with mutant EGFR to IC50 for cells with wildtype EGFR (Mut/WT) >= 0.02; otherwise NO.

Problem: Could you please find out whether C=CC(=O)Nc1cc(Nc2ncc(C(=O)OC(C)C)c(-c3cn(C)c4ccccc34)n2)c(OC)cc1N(C)CCN(C)C has ratio of IC50 for cells with mutant EGFR to IC50 for cells with wildtype EGFR (Mut/WT) that meets 0.02 or exceeds it?
Result: NO

Problem: Same for COc1cc2ncnc(Nc3ccc(F)c(Cl)c3)c2cc1NC(=O)/C=C/CN1CCCCC1
Result: NO

Problem: Subsequent entry: CN(C)C/C=C/C(=O)Nc1cc2c(Nc3ccc(Cl)c(Br)c3)ncnc2cn1
Result: NO

Problem: Repeat with CNC(=O)CN1CCC(Oc2cc3c(Nc4cccc(Cl)c4F)ncnc3cc2OC)CC1
Result: YES

Problem: And C=CC(=O)Nc1cc(Nc2nccc(-c3c[nH]c4ccccc34)n2)c(OC)cc1N(C)CCN(C)C ?
Result: YES

Problem: Then what about the molecule C=CC(=O)Nc1cccc(Oc2nc(Nc3ccc(N4CCN(C)CC4)cc3)nc3ccsc23)c1 ?
Result: NO
